test: AUC in Sprague-Dawley rat at 2 mg/kg, po; assay type: ADME, organism-based; design: dose 2 mg/kg, route oral; details: plasma
The compounds listed here are annotated with their AUC.
attribute.measured: AUC

- N#Cc1cc(-c2ccnc(Nc3ccc(-n4cnc(-c5ccccn5)n4)cc3)n2)cc(N2CCOCC2)c1: 5.9 µM·h
- Cc1ncn(-c2ccc(Nc3nccc(-c4cccc(N5CCOCC5)c4)n3)cc2)n1: 2 µM·h
- Fc1cc(-c2ccnc(Nc3ccc(-n4cnc(N5CCOCC5)n4)cc3)n2)cc(N2CCOCC2)c1: 1.4 µM·h
- Cn1nnc(-c2ccc(Nc3nccc(-c4cc(C#N)cc(N5CCOCC5)c4)n3)cc2)n1: 0.24 µM·h
